Reference for the values: the domain aggregation screens of Martell et al. (2025)

experiment: soluble fraction after stress (log2 fold change); higher = more stays soluble; pooled small domains, quantitative proteomics; details: stress: 50 degC
soluble fraction (log2) below -0.1 gives not met; soluble fraction (log2) at or above it gives met.

# CONSTRUCT_SEQUENCE, GROUP
measured = [
    ("HMNGKWKLRIIKELLHSNIRFGQILKNIPDISPKVLSQQLKEMEEDGIIERIVISEMPPNVEYVLTDMGE", "not met"),
    ("HMLAVEKIEFVGNERIAAADLESALSALYDRPMTTISDDEIAKLLSGFSLIETFTSQAEPPHTLRVNIRE", "not met"),
    ("HMGHEISLNNSRFLKLLNKTKISISNDDTRHYLNGIFLHLTEAHGRQFLTGVATDSHRLSSSSLEID", "met"),
    ("HMKQGKGIIVVDGKLMPEDFNVATLSLDEVESITVLKGEKAVALYGEKAKEREVLLITTQKG", "met"),
    ("HMSGKGEFDQLLRSGEYVQAFQRANANGNVTLRRQQLLNLARHQAASGVGSGAIESLSTIQRI", "met"),
    ("HMKSFIWKQYTVQITKKNVKNTNVRIKRDNPHVILMSIPYSATYKAGLLALETPHIRHWLDNYERKLKQ", "not met"),
    ("HMKQNNYATKKELNFFVSRLISLLSYRDFFNPIEKKESMINNIEAIFTRSSLTSQELRTLHGIISNLVE", "not met"),
    ("HMNSFKIYPNPSSREVVRFNQAQDVKVYDTLGKLILSAKNTSAIDTKSFNTGIYFIKTANGLTKKLIV", "not met"),
]

Item HMLMLTPGQVSNSLNVSTATVRRWSARFARHLSPQPPNRKRSYTPDDLATLARVRDLSASGTSLAQIDIAL with soluble fraction (log2) of -0.1 or above? not met

For HMGTGSSAERITMLNSILERQIQAMEIQGNPDAPIVNIQKIYTTLQRIVETAGLKDVDQFFMNPLQGQKEM then? not met

----------
experiment: soluble fraction after stress (log2 fold change); higher = more stays soluble; pooled small domains, quantitative proteomics; conditions: stress: 50 degC
REPORTED_METRIC: soluble fraction (log2)
Lab note: jot the number down without any unit.

Guide cases for soluble fraction (log2), answers given:
# CONSTRUCT_SEQUENCE, soluble fraction (log2)
rows = [
    ("HMGALSLDMLFDRFDALQEQSMGDKTEGGQELRGMIRTFIEQEKLDIRVTRTTTNAALLEMIEKEMQG", -0.451),
    ("HMIAALEGKQAMVLDQVSLHHGQVKLGGEVWTARPLNDQDVYEPGDRVTVMRIDGATAVVWRN", -0.281),
    ("HMFDFGNHLRMLREKHGISQEELGRRVGRAGSVISNYENNIKIPTLDVLTTMARIYDVSLDYLVG", -1.36),
    ("HMEQNTKAYEQVRTLTDLLNQYRHEYYNLSAPSVSDQEYDRLFDALAALEKQTGIVMSNSPTQTVG", 0.0359),
    ("HMHMHTADDFKQLAKHTSNGRLRTRYLALYHFKKGETRTQIAAYLGVARGSVNTWVSNYLAYGLEGLQS", -2.56),
    ("HMNLKDINLNVRHYKIIDFVREHGYASIETLTRQFGVSAQTVRRDIIYLDNQAVLKRHHGGVGTLPG", -1.99),
    ("HMGGEPVSARVPDTLHGARLDATAAALFPDFSRSRLAEWIKAGRLRRNDQPAKPRDKVAVDDHLLLIPEY", 0.0696),
]

Here is another sequence to look at.
GET /values?readout=soluble fraction (log2)&item= HMDTIGSKVLAFLAGNLLDPTPFNYRFGYLYLNRTSKVIVEETDTYIDSGMRMTQEAVAEIMQKFAQ -3.9

----------
assay: soluble fraction after stress (log2 fold change); higher = more stays soluble; pooled small domains, quantitative proteomics; conditions: stress: 50 degC
REPORTED_METRIC: soluble fraction (log2)
Lab note: jot the number down without any unit.

GET /values?readout=soluble fraction (log2)&item= HMGHYGQMTRDLIEKAKTYEEGEEKAALVLTIANLMKRHYLTWNRATVENTLIAEQLKEMSEGALTLPEDV -0.51

----------
test: soluble fraction after stress (log2 fold change); higher = more stays soluble; pooled small domains, quantitative proteomics; conditions: stress: 50 degC
soluble fraction (log2) below -0.0009 gives n; soluble fraction (log2) at or above it gives y.

Worked examples follow.
# CONSTRUCT_SEQUENCE, GROUP
measured = [
    ("HMDIRMLLSDREEEIMILLSKGLSISEAANRMQIGQASAATYLNRARRKLKAETVRQAVAIWTGD", "n"),
    ("HMGLGQRIKARREALGLSQARLGEAVGVSLQAVSNWERDEYLPDTARLPLIARALGLTPGQLME", "y"),
    ("HMGDLTVPDLSGLTVDQAKQRLKDMGLVLGKITTQEDSSKPDGVIISQSPSADGKINKGQLVDVVVNKLS", "y"),
]

Item HMSYEDLIQAVSGHFGIEIRALLSEDRKKENMIPRQVAMYLLKNKLHYTYERIGNIFSGRNHTAVMYSV with soluble fraction (log2) of -0.0009 or above? n

For HMRILGIDPGTRITGYGIIDIEGNRLRHVDNGIIKTRSSDALPLRLKVIYDGLTAVLKQYSPQAV then? y

For HMKDYQGEISVVASGERIDVYLFNYFNLFSRTKIKNHIKNGNILVNENIISPSYILKQNDKIAFNLGAPY then? n

For HMGSLVVVPNLVGQNYDEVKLSTKYSDFEIVQKNTEYSEAPAGQIIKQDPEAGTKVKKHSTINVTVSK then? n

----------
assay: soluble fraction after stress (log2 fold change); higher = more stays soluble; pooled small domains, quantitative proteomics; settings: stress: 50 degC
REPORTED_METRIC: soluble fraction (log2)

Guide cases for soluble fraction (log2), answers given:
# CONSTRUCT_SEQUENCE, REPORTED_METRIC, EXPERIMENTAL_RESULT
records = [
    ("HMETSIQFIRLEIGHNHPWVNQTLKEIPTIPGTLIAAVLRGDEDQAIIPKGDTLLKEGDSVIIGAKEYQD", "soluble fraction (log2)", -0.919),
    ("HMHDLDALTGLSGEARSKVYEEGSVFVAGEMWSAKSDAVIPAGSSIRVVRREGFILVVEKDS", "soluble fraction (log2)", -1.12),
    ("HMPAASDALAGELAQIARLDIAKLLAGDLSEADWSRITSATVQLSERHPDASDELTALVERIDTAYSARAT", "soluble fraction (log2)", 0.0455),
]

GET /values?readout=soluble fraction (log2)&item= HMEDSEYDRLLAEIDEGIRKAIETLEPVELSPQNARVRRIQHQIIEKYQLHSDSVGEEPYRRVRIL -0.593

For HMQRSVKNNDTVQVHYTGKLTNGQIFDSSIDKQPLEFQLGQGQIIPGFEKGLIDMTVSEKKTITIPEAEAY then? 0.1

For HMTYQTVRYGSTGSAVRQLQSALNQKGYQLSEDGIFGAKTRAAVRDYQKKNGLLLDGIAGSQTWNHLMS then? 0.224

For HMGGKTAVVTGSLVNVRKGPGTGNALVGQVARGDELPVLGQDGDWYQIKLANGSNGWVAGWLVSLKDAVP then? 0.432

For HMPGRKKLAIIYKNDYIGAFNLADSYRDSYEVSMYAFPKKVGKLLNRLELQGFNAYVIYDKDNEENNFNTI then? -1.65

For HMVDYYEILGVSPDASRKDIENAWRKKMREAHPDMGGSEDKAQLLNEAHKVLSDESARAEYDASR then? 0.103

For HMADFIGMNATVTERIFPQGFGRISFVYEGNSISEPARSEDGKEIPTGTSVVVLEVRDKVYIVQPL then? -0.221

For HMNRLEFLQGLKAELEGRVPHSIIQENLRYYDSYISDEAAKGQSEEDVVESLGGPRIIARTIVDAA then? 0.134

For HMEKTLAERVNDILAEIKMTKQELAMQLNISRSAVSQYLNGKYSSNPEAIEARLRDFVSSYDRG then? -0.0754

For HMPSPTPEQVLKAFTDAAMQKNTVEELKQAFAKAWKMLEGTPEQHKAQDVYNIRRDELEGAA then? -0.173

For HMEFQSIGGKIRIGREREHLTQAELAQKLSVTRQAVSNWERDKTLPDIYMIREIAEIFGLTLDEFMEGAKK then? -0.672

For HMNASTVTLENFEGAKYDDVYGKYDYQFSVTYEQTDKYESGVIISQKPEAGTKIIKGSQVSLVVAT then? 0.0657

For HMLSKGDRVSWDTPQGRTQGEVVEKKTKDFEHDGQKFTASDDDPAFIVKSEKSGAEAAHKGSALNK then? 0.0884

For HMATVHVDGIQYDFSSPEQAKEFAYKWAKKHNLTWEVHGETIHIK then? -0.0845
